The values you see were collected from patent US10294202B2.

- Test system: foxtail, green
- Assay Details: Test C pre-/postemergence herbicide test
- Format: in vivo, Setaria viridis
- Condition: Preemergence, 125 g ai/ha; scale 0 to 100 (0 no effect, 100 complete control)
Provide the recorded Plant response rating, Foxtail, Green for the entries that follow.
Numbers only.

>>> recorded_value("O=C1NCC(c2ccc3c(c2)OC(F)(F)O3)C1C(=O)Nc1cccc(F)c1F (centres unmarked)")
90

For each of the items listed, what is its Plant response rating, Foxtail, Green?
1. O=C1NCC(c2cc(F)c(F)c(F)c2)C1C(=O)Nc1ccccc1F (racemic)
2. O=C1NCC(c2cccc(OC(F)(F)F)c2)C1C(=O)Nc1cccc(F)c1F (centres unmarked)
3. O=C1NCC(c2ccc(Cl)c(F)c2)C1C(=O)Nc1ccccc1F (centres unmarked)

98
95
90

Reported Plant response rating, Foxtail, Green ( O=C1NCC(c2cccc(Br)c2)C1C(=O)Nc1cccc(F)c1F (centres unmarked) ) = 90

* * *

Assign Plant response rating, Ryegrass, Italian to each entry below.
- System: ryegrass, Italian
- Assay Details: Test A pre-/postemergence herbicide test
- Format: in vivo, Lolium multiflorum
- Condition: Preemergence, 125 g ai/ha; 0 to 100 scale where 0 is no effect and 100 is complete control
One number for each entry.

Sample records with Plant response rating, Ryegrass, Italian:
>>> recorded_value("CN1CC(c2cccc(C(F)(F)F)c2)C(C(=O)Nc2ccccc2F)C1=O (stereo not drawn) [Compound 277]")
30
>>> recorded_value("O=C1NCC(c2cc3ccccc3s2)C1C(=O)Nc1ccccc1C(F)(F)F (stereo not drawn) [Compound 297]")
0

Now for a further compound.
Entry O=C1NCC(c2ccc(Cl)s2)C1C(=O)Nc1ccccc1C(F)(F)F (stereo not drawn) [Compound 293] ; Plant response rating, Ryegrass, Italian = 0

* * *

- Test system: lambsquarters
- Assay Details: Test C pre-/postemergence herbicide test
- Format: in vivo, Chenopodium album
- Condition: Preemergence, 62 g ai/ha; scale 0 to 100 (0 no effect, 100 complete control)
- Excerpt: […]
Lab note: compare Lambsquarters plant response rating with 60, writing fulfilled if less and not fulfilled if equal or more.

Solved cases below.
>>> cat("O=C1NCC(c2cccc(Br)c2)C1C(=O)Nc1cccc(F)c1F (centres unmarked)")
"fulfilled"
>>> cat("O=C1NCC(c2ccc(C(F)(F)F)c(F)c2)C1C(=O)Nc1ccccc1F (racemic)")
"not fulfilled"
>>> cat("O=C1NCC(c2ccc(C(F)(F)F)cc2)C1C(=O)Nc1ccccc1Cl (centres unmarked)")
"not fulfilled"
>>> cat("O=C1NCC(c2cccc(OC(F)F)c2)C1C(=O)Nc1ccc(F)c(F)c1F (centres unmarked)")
"not fulfilled"

Note: attention shifts to another entry.
Decide: Lambsquarters plant response rating of O=C1NCC(c2ccc(C(F)(F)F)nc2)C1C(=O)Nc1cccc(F)c1F (racemic) strictly below 60?
not fulfilled

* * *

Record form. Attribute: Plant response rating, Ryegrass, Italian. Fill in for each entry.
- Test system: ryegrass, Italian
- Assay Details: Test A pre-/postemergence herbicide test
- Format: in vivo, Lolium multiflorum
- Condition: Postemergence, 500 g ai/ha; 0 to 100 scale (0 no effect, 100 complete control)
- Description: […]
One number for each entry.

>>> recorded_value("O=C1NCC(c2cnn(CC(F)(F)F)c2)C1C(=O)Nc1cccc(F)c1F (stereo not shown) [Compound 299]")
0
>>> recorded_value("O=C1NCC(c2cccc(I)c2)C1C(=O)Nc1ccccc1C(F)(F)F (stereo not shown) [Compound 328]")
20

Each compound below has a reported value. Please supply its Plant response rating, Ryegrass, Italian.
1. COc1ccc(C2CNC(=O)C2C(=O)Nc2ccccc2C(F)(F)F)cc1C(F)(F)F (stereo not shown) [Compound 240]
2. O=C1NCC(c2cccc(Oc3ccccc3)c2)C1C(=O)Nc1cccc(F)c1F (stereo not shown) [Compound 332]
3. O=C1NCC(c2cc3ccccc3o2)C1C(=O)Nc1ccccc1F (racemic) [Compound 281]
4. O=C1NCC(c2cccc(-n3ccc(C(F)(F)F)n3)c2)C1C(=O)Nc1ccccc1C(F)(F)F (stereo not shown) [Compound 329]

[0, 20, 0, 0]

Report Plant response rating, Ryegrass, Italian for each item below.
1. O=C1NCC(c2cc3ccccc3s2)C1C(=O)Nc1ccccc1F (stereo not shown) [Compound 295]
2. CN1CC(c2cccc(C(F)(F)F)c2)C(C(=O)Nc2ccccc2F)C1=O (stereo not shown) [Compound 277]
3. CN1CC(c2ccc(F)c(F)c2)C(C(=O)Nc2ccccc2F)C1=O (stereo not shown) [Compound 302]
4. O=C1NCC(c2cccc(Br)c2)C1C(=O)Nc1ccc(F)cc1F (stereo not shown) [Compound 308]

1: 0; 2: 40; 3: 60; 4: 0
